Origin of the recorded values: ChEMBL document CHEMBL4732029

# System: HeLa
# test name: Cytotoxicity against human HeLa cells
# Format: functional, cell-based
Catalogue of IC50 values
The response must be a number in nM with no trailing unit.

Examples with answers:
• Cc1cc2c3c([n+](C)c4ccc(F)cc4c3c1)-c1cc(F)ccc1N2C = 200
• COc1cccc2c1C(=O)c1c(O)c3c(c(O)c1C2=O)C[C@@](O)(C(=O)CO)C[C@@H]3O[C@H]1C[C@H](N)[C@H](O)[C@H](C)O1 [DOXORUBICIN] = 374
• CN1CCC[C@H]1CCNC(=O)c1cn2c3c(c(N4CCC(c5cnccn5)C4)c(F)cc3c1=O)Oc1cc3ccccc3cc1-2 (stereo partly specified) [QUARFLOXIN] = 4440
• Cc1cnc(CNC(=O)c2c(=O)c3ccc(N4CCCN(C)CC4)nc3n3c2sc2ccccc23)cn1 [CX-5461] = 6890

Query block: Give measured IC50 for COc1cccc2c1C(=O)c1c(O)c3c(c(O)c1C2=O)C[C@@](O)(C(=O)CO)C[C@@H]3O[C@H]1C[C@H](N2CCO[C@H](OC)C2)[C@H](O)[C@H](C)O1 [NEMORUBICIN] (HeLa).
Result block: 80

Query block: Give measured IC50 for "CN(C)CCNC(=O)c1cccn2c(=O)c3cc4ccccc4cc3nc12" (HeLa).
Result block: 460
